- test: Extrapolated AUC in C57 mouse at 5 mg/kg, iv administered as DMSO formulation
- Format: ADME, organism-based
- Parameters: dose 5 mg/kg, route intravenous
- assay-context: in vivo
attribute-measured: AUC (ng·h/mL)
I only need the number, in ng·h/mL, no unit after it.

Prompt: Field request: AUC | item: COC(=O)c1c(Cc2ccc(C(=O)N[C@@H]3[C@@H]4C[C@@H]5C[C@H]3C[C@@](O)(C5)C4)cc2)c(=O)c2cccnc2n1-c1ccccc1
Response: 9890

---

Kindly state IC50 for each of the entries shown.
- system-name: Mitogen-activated protein kinase 8 (Homo sapiens)
- test: Inhibition of JNK1 after 30 mins by TR-FRET assay
The reply should contain only the number, in nM.

Prompt: Please give the measured IC50 for this molecule: COC(=O)c1c(Cc2ccc(C(=O)NC(C)(C)CO)cc2)c(=O)c2cccnc2n1-c1ccccc1
Response: 45

Prompt: Param item = COC(=O)c1c(Cc2ccc(C(=O)NCCO)cc2)c(=O)c2ccc(Cl)cc2n1-c1ccccc1 ; retrieve measured IC50.
Response: 44

Prompt: Form field: reported IC50 of COC(=O)c1c(Cc2ccc(C(=O)N[C@@H]3[C@@H]4C[C@@H]5C[C@H]3C[C@@](O)(C5)C4)cc2)c(=O)c2cccnc2n1-c1ccccc1
Response: 12

Prompt: Would you kindly share the measured IC50 for COC(=O)c1c(Cc2ccc(C(=O)N[C@H]3[C@@H]4C[C@@H]5C[C@H]3C[C@@](O)(C5)C4)cc2)c(=O)c2cccnc2n1-c1ccccc1 ?
Response: 47

Prompt: IC50 lookup needed for COC(=O)c1c(Cc2ccc(C(=O)NC3(CO)CC3)cc2)c(=O)c2cccnc2n1-c1ccccc1 , thanks.
Response: 45

---

- test: Clearance in mouse hepatocytes
- Format: ADME, cell-based, Liver, Hepatocyte
attribute-measured: CLhep predicted (mL/min/kg)
Give the value, in units of mL/min/kg, as a plain number.

Prompt: Given COC(=O)c1c(Cc2ccc(C(=O)NC3(CO)CC3)cc2)c(=O)c2cccnc2n1-c1ccccc1 , state its recorded CLhep predicted.
Response: 33.2

Prompt: Data request, read-out CLhep predicted, for COC(=O)c1c(Cc2ccc(C(=O)N[C@@H]3[C@@H]4C[C@@H]5C[C@H]3C[C@@](O)(C5)C4)cc2)c(=O)c2cccnc2n1-c1ccccc1
Response: 10.9

Prompt: Using the record for COC(=O)c1c(Cc2ccc(C(=O)NC(C)(C)CO)cc2)c(=O)c2cccnc2n1-c1ccccc1 , report its CLhep predicted.
Response: 52.9

Prompt: Endpoint output: CLhep predicted of COC(=O)c1c(Cc2ccc(C(=O)NCCO)cc2)c(=O)c2ccc(Cl)cc2n1-c1ccccc1 . Value?
Response: 31.7

---

- test: Half life in C57 mouse at 75 mg/kg, po administered as MBP formulation
- Format: ADME, organism-based
- Parameters: dose 75 mg/kg, route oral
- assay-context: in vivo
attribute-measured: half-life (h)
Write the value in h as a bare number.

Prompt: I'd like to know its half-life. The molecule in question is COC(=O)c1c(Cc2ccc(C(=O)N[C@@H]3[C@@H]4C[C@@H]5C[C@H]3C[C@@](O)(C5)C4)cc2)c(=O)c2cccnc2n1-c1ccccc1
Response: 1.62

---

- test: Volume of distribution at steady state in C57 mouse at 5 mg/kg, iv
- Type: ADME, organism-based
- Set-up: dose 5 mg/kg, route intravenous
- assay-context: in vivo, read-out: Vdss
attribute-measured: Vd (L/kg)
Response body: numeric value in L/kg, unit text excluded.

Prompt: So what's the measured Vd for this one? COC(=O)c1c(Cc2ccc(C(=O)N[C@H]3CC[C@H](O)CC3)cc2)c(=O)c2cccnc2n1-c1ccccc1
Response: 0.73

Prompt: # get_value(readout='Vd', item= COC(=O)c1c(Cc2ccc(C(=O)N[C@@H]3[C@@H]4C[C@@H]5C[C@H]3C[C@@](O)(C5)C4)cc2)c(=O)c2cccnc2n1-c1ccccc1 )
Response: 0.3

---

- system-name: Mitogen-activated protein kinase 8 (Homo sapiens, UniProt P45983)
- Sequence (P45983 whole entry): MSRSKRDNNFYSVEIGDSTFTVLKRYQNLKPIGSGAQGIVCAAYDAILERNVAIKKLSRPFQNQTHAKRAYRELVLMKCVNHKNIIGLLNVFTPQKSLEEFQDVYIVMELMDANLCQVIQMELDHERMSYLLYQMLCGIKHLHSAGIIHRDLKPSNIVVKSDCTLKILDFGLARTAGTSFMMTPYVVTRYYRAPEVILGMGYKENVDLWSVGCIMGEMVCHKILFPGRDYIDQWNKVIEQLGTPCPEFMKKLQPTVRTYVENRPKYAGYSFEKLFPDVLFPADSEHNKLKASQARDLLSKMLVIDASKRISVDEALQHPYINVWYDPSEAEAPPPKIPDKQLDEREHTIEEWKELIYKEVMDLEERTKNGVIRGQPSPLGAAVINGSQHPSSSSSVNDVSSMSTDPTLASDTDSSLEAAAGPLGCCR
- test: Inhibition of JNK1-mediated c-jun phosphorylation in TNF-alpha stimulated human HK-2 cells after 30 mins by TR-FRET assay
Give measured pEC50 for each item. Keep answers brief.
In textbook form, pEC50 equals minus log to base ten of the concentration in mol/L.

Prompt: Request - read-out pEC50 | tested on Mitogen-activated protein kinase 8 (Homo sapiens, UniProt P45983) | compound COC(=O)c1c(Cc2ccc(C(=O)NC(C)(C)CO)cc2)c(=O)c2cccnc2n1-c1ccccc1
Response: 5.05

Prompt: Lookup: pEC50 / Mitogen-activated protein kinase 8 (Homo sapiens, UniProt P45983) / COC(=O)c1c(Cc2ccc(C(=O)N[C@H]3[C@@H]4C[C@@H]5C[C@H]3C[C@@](O)(C5)C4)cc2)c(=O)c2cccnc2n1-c1ccccc1
Response: 5.07

Prompt: pEC50 of COC(=O)c1c(Cc2ccc(C(=O)NC3(CO)CC3)cc2)c(=O)c2cccnc2n1-c1ccccc1 on Mitogen-activated protein kinase 8 (Homo sapiens, UniProt P45983)?
Response: 4.68

Prompt: Form field - read-out: pEC50; system: Mitogen-activated protein kinase 8 (Homo sapiens, UniProt P45983); submitted item: COC(=O)c1c(Cc2ccc(C(=O)N[C@@H]3[C@@H]4C[C@@H]5C[C@H]3C[C@@](O)(C5)C4)cc2)c(=O)c2cccnc2n1-c1ccccc1
Response: 5.39

Prompt: Test system Mitogen-activated protein kinase 8 (Homo sapiens, UniProt P45983); read-out pEC50; what value for COC(=O)c1c(Cc2ccc(C(=O)NCCO)cc2)c(=O)c2ccc(Cl)cc2n1-c1ccccc1 ?
Response: 5.00

---

- test: Half life in C57 mouse at 5 mg/kg, iv administered as DMSO formulation
- Assay type: ADME, organism-based
- Parameters: dose 5 mg/kg, route intravenous
- assay-context: in vivo
attribute-measured: half-life (min)
Kindly answer with a numeric value in min, unit omitted.

Prompt: Report half-life for COC(=O)c1c(Cc2ccc(C(=O)N[C@@H]3[C@@H]4C[C@@H]5C[C@H]3C[C@@](O)(C5)C4)cc2)c(=O)c2cccnc2n1-c1ccccc1 please.
Response: 36

---

- test: Clearance in C57 mouse at 5 mg/kg, iv
- Assay type: ADME, organism-based
- Design: dose 5 mg/kg, route intravenous
- assay-context: in vivo
attribute-measured: clearance (mL/min/kg)
Value expressed in mL/min/kg; do not type the unit.

Prompt: What does the data say about its clearance? Entry: COC(=O)c1c(Cc2ccc(C(=O)N[C@@H]3[C@@H]4C[C@@H]5C[C@H]3C[C@@](O)(C5)C4)cc2)c(=O)c2cccnc2n1-c1ccccc1
Response: 8.4

---

- test: AUC in C57 mouse at 30 mg/kg, po administered as DMSO formulation
- Type: ADME, organism-based
- Parameters: dose 30 mg/kg, route oral
- assay-context: plasma
attribute-measured: AUC (ng·h/mL)
Field format: number, assumed ng·h/mL, no unit text.

Prompt: Which AUC reading was recorded for the compound COC(=O)c1c(Cc2ccc(C(=O)N[C@@H]3[C@@H]4C[C@@H]5C[C@H]3C[C@@](O)(C5)C4)cc2)c(=O)c2cccnc2n1-c1ccccc1 ?
Response: 22400

---

- test: AUC in C57 mouse at 75 mg/kg, po administered as MBP formulation
- Assay type: ADME, organism-based
- Parameters: dose 75 mg/kg, route oral
- assay-context: plasma
attribute-measured: AUC
Report as: number unit

Prompt: Please give the measured AUC for this compound: COC(=O)c1c(Cc2ccc(C(=O)N[C@@H]3[C@@H]4C[C@@H]5C[C@H]3C[C@@](O)(C5)C4)cc2)c(=O)c2cccnc2n1-c1ccccc1
Response: 49200 ng·h/mL

---

- test: Half life in rat at 75 mg/kg, po administered as MBP formulation
- Type: ADME, organism-based
- Design: dose 75 mg/kg, route oral
- assay-context: in vivo
attribute-measured: half-life (h)
Please reply with the bare figure in h and do not write the unit itself.

Prompt: Recorded half-life of COC(=O)c1c(Cc2ccc(C(=O)N[C@@H]3[C@@H]4C[C@@H]5C[C@H]3C[C@@](O)(C5)C4)cc2)c(=O)c2cccnc2n1-c1ccccc1 , please.
Response: 2

---

- test: Extrapolated AUC in rat at 5 mg/kg, iv administered as DMSO formulation
- Assay type: ADME, organism-based
- Set-up: dose 5 mg/kg, route intravenous
- assay-context: in vivo
attribute-measured: AUC (ng·h/mL)
Write down the numeric answer in ng·h/mL and omit the unit.

Prompt: Which AUC value belongs to COC(=O)c1c(Cc2ccc(C(=O)N[C@@H]3[C@@H]4C[C@@H]5C[C@H]3C[C@@](O)(C5)C4)cc2)c(=O)c2cccnc2n1-c1ccccc1 ?
Response: 16300

---

- test: Solubility of the compound in acetonitrile/water at pH 6.5 by lyophilization solubility assay
- Format: physicochemical
attribute-measured: log10(solubility) (log10 of the value in µg/mL)
Please be aware that the numbers have been log10-transformed from solubility in µg/mL.

Prompt: Item COC(=O)c1c(Cc2ccc(C(=O)N[C@H]3[C@@H]4C[C@@H]5C[C@H]3C[C@@](O)(C5)C4)cc2)c(=O)c2cccnc2n1-c1ccccc1 has what recorded log10(solubility)?
Response: 1.40

Prompt: Returns the measured log10(solubility) for the input compound. Input: COC(=O)c1c(Cc2ccc(C(=O)NC3(CO)CC3)cc2)c(=O)c2cccnc2n1-c1ccccc1
Response: 2.14

Prompt: Field request: log10(solubility) | item: COC(=O)c1c(Cc2ccc(C(=O)NCCO)cc2)c(=O)c2ccc(Cl)cc2n1-c1ccccc1
Response: 0.66

Prompt: Given the entry COC(=O)c1c(Cc2ccc(C(=O)N[C@@H]3[C@@H]4C[C@@H]5C[C@H]3C[C@@](O)(C5)C4)cc2)c(=O)c2cccnc2n1-c1ccccc1 , report its measured log10(solubility).
Response: 1.15

Prompt: May I ask what log10(solubility) has been recorded for COC(=O)c1c(Cc2ccc(C(=O)NC(C)(C)CO)cc2)c(=O)c2cccnc2n1-c1ccccc1 ?
Response: 2.01

Prompt: Can you look up the measured log10(solubility) of COC(=O)c1c(Cc2ccc(C(=O)N[C@@H]3[C@@H]4C[C@@H]5C[C@H]3C[C@@](N)(C5)C4)cc2)c(=O)c2cccnc2n1-c1ccccc1 for me?
Response: 1.34
